This collection of values is drawn from paper PMC9816242.

ASSAY_TEXT: clinical
ASSAY_SETUP: both, human, in vivo
QUANTITY_MEASURED: half-life (h)
The response must be a number in h with no trailing unit.

Exam item: Please indicate half-life recorded for CC(C)(C)c1cc(-n2nc3ccc(Cl)cc3n2)c(O)c(C(C)(C)C)c1 [UV-327]
Marked response: 18.2

---

ASSAY_TEXT: clinical
ASSAY_SETUP: both, human, whole blood, po, 0.3 mg/kg
QUANTITY_MEASURED: concentration at 24 h (ng/mL)
The response must be a number in ng/mL with no trailing unit.

Exam item: Please indicate concentration at 24 h recorded for "CC(C)(C)c1cc(-n2nc3ccc(Cl)cc3n2)c(O)c(C(C)(C)C)c1"
Marked response: 103

---

ASSAY_TEXT: clinical
ASSAY_SETUP: both, human, whole blood, po, 0.3 mg/kg
QUANTITY_MEASURED: concentration at 72 h (ng/mL)
The response must be a number in ng/mL with no trailing unit.

Exam item: Please indicate concentration at 72 h recorded for "CC(C)(C)c1cc(-n2nc3ccc(Cl)cc3n2)c(O)c(C(C)(C)C)c1"
Marked response: 27
